These entries and their values trace back to patent US20120214775A1.

Assay: Equilibrium solubility in selected solvents
Conditions: organic solvent or mixture, thermodynamic from solid, Equilibrium solubility, PEG 400; equilibration 7 days; compound may have precipitated on removal from water bath
quantity.kind: solubility thermodynamic at 7 days (mg/mL)
State the answer as a number, implicitly in mg/mL.

Req: Using known records, supply solubility thermodynamic at 7 days for C=C(C)[C@@H]1CC[C@]2(C(=O)O)CC[C@]3(C)[C@H](CC[C@@H]4[C@@]5(C)CC[C@H](OC(=O)CC(C)(C)C(=O)O)C(C)(C)[C@@H]5CC[C@]43C)[C@@H]12
Resp: 5.12

---

Experiment: Equilibrium solubility in selected solvents
Conditions: organic solvent or mixture, thermodynamic from solid, Equilibrium solubility, Methanol; equilibration 7 days
quantity.kind: solubility thermodynamic at 7 days (mg/mL)
State the answer as a number, implicitly in mg/mL.

Req: Using known records, supply solubility thermodynamic at 7 days for C=C(C)[C@@H]1CC[C@]2(C(=O)O)CC[C@]3(C)[C@H](CC[C@@H]4[C@@]5(C)CC[C@H](OC(=O)CC(C)(C)C(=O)O)C(C)(C)[C@@H]5CC[C@]43C)[C@@H]12 [DSB-(NmG)2]
Resp: 37
